Could you please report measured apparent KD of MS2 coat protein for the items listed next?
- Test system: MS2 coat protein
- Test Details: apparent KD of MS2 coat protein, switch OFF state (with FMN for OFF switches, without FMN for ON switches); designed switch direction (-1 OFF switch, 1 ON switch): 1; higher = weaker reporter binding
- Test Settings: FMN input: 0 or 200 uM; Eterna round: R93 (includes R88 designs)
Numbers only, in nM.

Sequence Chain	apparent KD of MS2 coat protein, nM
GAAAAACAUGAGGAUCACCCAUGUAAGAUAAACACAGGAUAUGCGAAAAUAAAUAAAUAAGCAGAAGGGUGAAAAG [Mat - Same State 1 - Tesla mod - 78]	37.4
UCCACCAUGGUACAGGAUAUGUCAGACCCGACAUGAGGAUCACCCAUGUGCGGUUCUUUUCCAACGCAGAAGGGUGCAUAGGUGG [Xevetia]	43.9
AGGAAACAUGAGGAUCACCCAUGUAAAAAUAUGGGAGGAUAUACGAAGAAAAAAAAAAAAGUAGAAGGCCUAAAAG [Garnet 11]	345
AACAACAAUAUGAAGGAUAUCCACAACAAGACAUGAGGAUCACCCAUGUAAACUUAGAACAUACAGGAGAAGGUCAAGGGUGAAU [JR_SS002_Sub1204]	63.2

List the reported apparent KD of MS2 coat protein of each sequence below.
1. GGAGCCGGUACUGAGGAUAUUCAUAUUAAAACAUGAGGAUCACCCAUGUAGGCCAGAAGGCCUUGGGAGAAGGCAGAUCGGCUCC [Biceusra]
2. UAGAGACAUGAGGAUCACCCAUGUAGGAUUAUGGGAGGAUAUACAAAGACGAGAGUCAGAGUAGAAGGCCUAGGAG [salish99-ss1-135(!)]

Output:
1: 266; 2: 64.9

====

Could you please report measured apparent KD of MS2 coat protein for the items listed next?
- Tested on: MS2 coat protein
- Test Details: apparent KD of MS2 coat protein; designed switch direction (-1 OFF switch, 1 ON switch): 1; higher = weaker reporter binding
- Test Settings: input ligand: microRNA oligo, concentration not stated
Numbers only, in nM.

Guide cases for apparent KD of MS2 coat protein, answers given:
Sequence Chain	Quantitative Readout
UUAAUUAUGUAAGGAUAUACAUGAGGAUUUCUCGUAGAAGGUACAUUACAUGAGGAUCACCCAUGUAGGUGUCCGUAGACGCCA [JL SSNG1 1.07] (Eterna round: R96, puzzle: Same State NG 1)	78.3
AGGCUCAGACGAGGAUAUGGUCAUGGCGCUUCGGCGCAUACAUGAGGAUCACCCAUGUAGGGUGAUCAGAAGGUGUCUGAGCCA [SSNG2/9-B1] (Eterna round: R96, puzzle: Same State NG 2)	720

List the reported apparent KD of MS2 coat protein of each sequence below.
1. CCGAUAAUUGGAGGAUAUGGAGCCUUAUUGGCUCCAGAAGGCUAUAAACAUGAGGAUCACCCAUGUCGGCGGUCUAAUGACCGA [Eli NG1ss - 50] (Eterna round: R96, puzzle: Same State NG 1)
2. GCGAAGAGGUAAGGAUAUGCAUGGCGGAGACAUGAGGAUCACCCAUGUUGGAGACGAAAUCUAGGGUAGAAGGUACCAGGAAGC [AK SSNG2-V2-12] (Eterna round: R96, puzzle: Same State NG 2)
3. GUAGCAUACCGAGGAUAUUCAUACAUGAGGAUCACCCAUGUUAUUAUAGGCCGAUUACGGCCUUGGGAGAAGGCGGAAUGCUAC [Xeonanis - 20 Mod28] (Eterna round: R96, puzzle: Same State NG 2)
4. UGAGCCGGCACUGAGGAUAUUCAUAAUAAAACAUGAGGAUCACCCAUGUAGGCCAGAAGGCCUUGGGAGAAGGCAGGUCGGCUCA [Mat - Same State 2 - Mod of UCT - D71] (Eterna round: R96, puzzle: Same State 2)
5. ACUAGAAGCGGGCAAUAACACAUGAGGAUCACCCAUGUGACACAGGAUAUAACCAGAUCAGAAAGUUAGAAGGGUGAGCCCGCA [Usatbere] (Eterna round: R96, puzzle: Same State NG 3)
6. GGAGCCGGCACCGAGGAUAUUCAUAUUAAAACAUGAGGAUCACCCAUGUAGGCCAGAAGGCCUUGGGAGAAGGCGGAUCGGCUCG [Xeonanis] (Eterna round: R96, puzzle: Same State 2)
7. UGAAUAGUGAUAGGAUAUACAUGAGGAAUCCUCGUAGAAGGAUCAUAACAUGAGGAUCACCCAUGUAGCGCUCAGAAGAGCGCA [Mat - Same State NG 1 - JL mod - D54] (Eterna round: R96, puzzle: Same State NG 1)
8. GCGAGCGUACUUGCUACAUGAGGAUCACCCAUGUUUUAUGGACAGGAUAUGGUACCGUUUCGGUACCAGAAGGGUCCACAUGUA [JL SSNG3 3.84] (Eterna round: R96, puzzle: Same State NG 3)

Output:
1: 36.6; 2: 52.6; 3: 11.4; 4: 147; 5: 19.9; 6: 305; 7: 37.1; 8: 579

====

- Test system: K4 kissing-loop RNA reporter;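 also: bound reporter read as fluorescence of individual clusters on recovered sequencing chips by microscopy, with normalized cluster intensities fitted with a binding model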
- Test Details: apparent KD of K4 kissing-loop reporter; higher = weaker reporter binding
- Test Settings: Eterna round: R107; input ligand: none
Property Name: apparent KD of K4 kissing-loop reporter (µM)
One number for each entry, in µM.

Guide cases for apparent KD of K4 kissing-loop reporter, answers given:
Sequence Chain	Property Name	Quantitative Readout
GUUACUUCAGAAGGAUAUUAGUAAACAACACGGUAGUGAUGUUACCGUUAUCAAGCCCGGCUUCACUAAGAAGGUCUCCACCGCG [theeternabot_sameState_KL_FMN_B_23]	apparent KD of K4 kissing-loop reporter	0.0529
AGUGAUGUAGUGUGUUGUUUGUGAAGUGAUCGAGGACCGGUACGGCCGCCACUCGAGUGAUGAGUGAGUGAUGUUUGUUUAGUGG [#18 K4 Tryptophan A Same State]	apparent KD of K4 kissing-loop reporter	0.376
GAGAGCUCUGGAGGAUAUGAGUCUAGUGAUGUUAGGCGGUCCAUGCGCGUGGCGCGUUAUGCCCUUUUAGAAGGCCAGAGCUCUC [#2 Exclusion - FMN B Attempt #19 (HarryS)]	apparent KD of K4 kissing-loop reporter	0.0998
GGGUGGCAGACGGCCGCCACUCUUAGCAGCCAGUGAGUGAUGUUCGUGGCGGAGUGAUGUUCCUAGAGGACCGGGUUUGUUGUUC [Same State Tryptophan B GF 20]	apparent KD of K4 kissing-loop reporter	0.478

List the reported apparent KD of K4 kissing-loop reporter of each sequence below.
1. CGUUUAUAGCAGGAUACCAGUACCCAUAAAGUACGUUAAUAGUAGAGUGAUGUUCUAAAGUACCCUUGGCAGCUUCCAGUGAGUG [ExTheophylB.S]
2. GGGCUGGUGCUAGGAUAUGCGAUGAAUGCUCAGAAAACCUUGAGUCCGCAGUGAUGUUGCGGCACCGCAGAAGGAGCUAAGGCUC [Reorinraor]
3. CCUUCUCUUGAUAGUGAUGUUGUCGAGGACAAGGAUAUCAUCUCAAUGAGAAGGUGUCCUUGAUAACAUGGAGGUCUGAAACAGA [Omei KL FMN A Exc C v10]
4. AGACUACCACACUGUCAAUAGACAGUGAAUUAGGAUAUGCUGAUAAGCAGAAGGAGUGAUGUUCCGAGGUAGUCAAUAAAAUAAU [FmnAX 13 U30+G66]
5. AGGAGUGAUGUUCCUACAUAGACGGUCCAACGAGGACCGGUACGGCCGCCACUCGCGACCCAGUGAUGUUGGGAUUCACCGUACA [Exclusion Tryptophan A Gf 14]
6. AUUAAUUUCAGAGGAUAUCGUAUUUAUAUUUUAUCUUUCCAUAUUUGCAGUGAUGUUGCAUUAAUUCGAGAAGGCUGAUUUAUAA [JR_ExcFMNB_Sub008]

Output:
0.142
0.111
0.333
0.216
0.818
0.0615

Task: Consider the sequence shown here: GGGAGAAGAGCGGCCGCCACUCAGACAGCAGCAGAAUAUAGUGAUGUUAUAUAGGAAAGGCGGAGGAGGACCGGGCUUAAGAGGG [#20 K4 Tryptophan B Same State] What is its recorded apparent KD of K4 kissing-loop reporter?
Output: 0.278

====

- System: MS2 coat protein
- Test Details: apparent KD of MS2 coat protein; higher = weaker reporter binding
- Test Settings: Eterna round: R107; input ligand: theophylline 2 mM
Could you please report measured apparent KD of MS2 coat protein for the items listed next?
Numbers only, in nM.

Guide cases for apparent KD of MS2 coat protein, answers given:
Sequence Chain	Property Name	Quantitative Readout
ACAUGAGGAUCACCCAUGUAUGACUAUCCUCGAGGACCGGUACGGCCGCCACUCGAAGGAGUGGCUCGCGAGUGCGCACUUGCAA [5' end]	apparent KD of MS2 coat protein	13.6
GGUUUGCGGCCUGAUACCAGUGAUGGAUGAACCCUAGUCAACAUGAGGAUCACCCAUGUUCACCCUUGGCAGCAGUGACGCUCGA [theeternabot_exclusion_MS2_Theo_B_34]	apparent KD of MS2 coat protein	354
UACUUGCUGACGGCCGCCACUAGAACAUGAGGAUCACCCAUGUAUCUAGUGGCAAUCCUCAUGACUAGGACCGGGUCAGCAAGAU [(Trp1)-(Ms2)-(T)'-(M)'-(Trp2)_Design1]	apparent KD of MS2 coat protein	9.58
AGAUGAGUCACGGCCGCCACUCUUAUCAGGAUCACCCAUGGUUGACAUGAGGAUCACCCAUGUAUGAGGACCGGGUGAUGAGCAU [XTryp B #1]	apparent KD of MS2 coat protein	15
AACACAUGAGGAUCACCCAUGUCCAUGUACCGAGGACCGGUACGGCCGCCACUCGACAUGAGGAUCACCCAUGUUCCAUGUUGUC [Same State Tryptophan A 3]	apparent KD of MS2 coat protein	146
CGCUGGCCACAUGAGGAUCACCCAUGUGAAGGAGCGGCGAAUAAGCCAGGUAGGUCGCGCAUGAAUAAAUCAUGUAGGUUGCGAA [XArg-A 11 V2]	apparent KD of MS2 coat protein	17.9
AUUGUGAAGUCGGCCGCCACUGCAUAGUUUAACCACAUGUAACAUGAGGAUCACCCAUGUAAUGACAGGACCGGGACAAUAGUAA [JR_SSTryptoB_Sub023]	apparent KD of MS2 coat protein	29.9
GGAUAGGACACGGCCGCCACUACCUAGGAUACUAGCAACAUUUGGGUACACGAGGAUCACCCGUGUAGGACCGGGUGUCCUAUCG	apparent KD of MS2 coat protein	13.6
AUUAAGGAUAUGUAGACGGCGGAGAAGAGACGAGGACCGGUACGGCCGCCACUCGUGUUAGUUAACAUGAGGAUCACCCAUGUAA [#07 Tryptophan A Same State]	apparent KD of MS2 coat protein	69.6
CUCCCGUGGUCGGCCGCCACUGGAGGCCUCGCGCGACAUGAGGAUCACCCAUGUUGGCCCGGCGUCAGGACCGGGAUCGCGUGAG [#1 Same State - Tryptophan B Attempt #9 (HarryS)]	apparent KD of MS2 coat protein	12.1

List the reported apparent KD of MS2 coat protein of each sequence below.
1. AAAAUCCUCCAUGAGGAUCACCCAUGGGAAGGAGCGCCCGAAAGGGCAGGUAGGUCGCCCAUGAGGAUCACCCAUGGAACCUAAA [ArgAX 26 #DoubleMS2 #OpenEnded #AlternativeMS2]
2. UGCCGAGACGUGGAUUACCCAUGUACAGAAGGAGCGCCCGAAAGGGCAGGUAGGUCGCUGAGGACAUGAGGAUCACCCAUGUCGA

Output:
[118, 49.5]
